testTarget: cathepsin B (Homo sapiens)
Construct: made in house
assayRemarks: Substrate selectivity screening, rate of hydrolysis, cathepsin B
Assay type: biochemical
conditionsUsed: Table S4; substrate 100µM, cathepsin 5nM; pH 5.5, 37 °C; average of at least three screenings
Non-standard residues stand in square brackets, D forms with d. *: point of attachment. Phe(3,4-Cl2) = N[C@@H](Cc1ccc(Cl)c(Cl)c1)C(=O)O; Phe(3,4-F2) = N[C@@H](Cc1ccc(F)c(F)c1)C(=O)O; Phe(2-Cl) = N[C@@H](Cc1ccccc1Cl)C(=O)O; ACC = NC(=O)Cc1cc(=O)oc2cc(N*)ccc12; Tic = O=C(O)[C@@H]1Cc2ccccc2CN1; dOrn = NCCC[C@@H](N)C(=O)O; Orn = NCCC[C@H](N)C(=O)O; Dab = NCC[C@H](N)C(=O)O
Provide the recorded Relative substrate activity (rate of hydrolysis), cathepsin B for the entries that follow.
Give bare numbers, in RFU/s.

substance | measurementUnits | measured
Ac-A[Orn][Phe(3,4-Cl2)]R-{ACC} (SMILES CC(=O)N[C@@H](C)C(=O)N[C@@H](CCCN)C(=O)N[C@@H](Cc1ccc(Cl)c(Cl)c1)C(=O)N[C@@H](CCCNC(=N)N)C(=O)Nc1ccc2c(CC(N)=O)cc(=O)oc2c1) | RFU/s | 189

# map each substance to its Relative substrate activity (rate of hydrolysis), cathepsin B
1. Ac-A[dK]K(Ac)R-{ACC} (SMILES CC(=O)NCCCC[C@H](NC(=O)[C@@H](CCCCN)NC(=O)[C@H](C)NC(C)=O)C(=O)N[C@@H](CCCNC(=N)N)C(=O)Nc1ccc2c(CC(N)=O)cc(=O)oc2c1)
2. Ac-[Tic][Dab][Phe(3,4-F2)]R-{ACC} (SMILES CC(=O)N1Cc2ccccc2C[C@H]1C(=O)N[C@@H](CCN)C(=O)N[C@@H](Cc1ccc(F)c(F)c1)C(=O)N[C@@H](CCCNC(=N)N)C(=O)Nc1ccc2c(CC(N)=O)cc(=O)oc2c1)
3. Ac-[Tic][dOrn][Phe(2-Cl)]K-{ACC} (SMILES CC(=O)N1Cc2ccccc2C[C@H]1C(=O)N[C@H](CCCN)C(=O)N[C@@H](Cc1ccccc1Cl)C(=O)N[C@@H](CCCCN)C(=O)Nc1ccc2c(CC(N)=O)cc(=O)oc2c1) [Tic-DArg-Phe(2-Cl)-Lys]

Response:
16.9
41.2
3.1
